All values here come from ChEMBL document CHEMBL4033795.

MEASUREMENT_TARGET: Epidermal growth factor receptor (Homo sapiens)
Sequence (P00533 whole entry, the tested form may be a part): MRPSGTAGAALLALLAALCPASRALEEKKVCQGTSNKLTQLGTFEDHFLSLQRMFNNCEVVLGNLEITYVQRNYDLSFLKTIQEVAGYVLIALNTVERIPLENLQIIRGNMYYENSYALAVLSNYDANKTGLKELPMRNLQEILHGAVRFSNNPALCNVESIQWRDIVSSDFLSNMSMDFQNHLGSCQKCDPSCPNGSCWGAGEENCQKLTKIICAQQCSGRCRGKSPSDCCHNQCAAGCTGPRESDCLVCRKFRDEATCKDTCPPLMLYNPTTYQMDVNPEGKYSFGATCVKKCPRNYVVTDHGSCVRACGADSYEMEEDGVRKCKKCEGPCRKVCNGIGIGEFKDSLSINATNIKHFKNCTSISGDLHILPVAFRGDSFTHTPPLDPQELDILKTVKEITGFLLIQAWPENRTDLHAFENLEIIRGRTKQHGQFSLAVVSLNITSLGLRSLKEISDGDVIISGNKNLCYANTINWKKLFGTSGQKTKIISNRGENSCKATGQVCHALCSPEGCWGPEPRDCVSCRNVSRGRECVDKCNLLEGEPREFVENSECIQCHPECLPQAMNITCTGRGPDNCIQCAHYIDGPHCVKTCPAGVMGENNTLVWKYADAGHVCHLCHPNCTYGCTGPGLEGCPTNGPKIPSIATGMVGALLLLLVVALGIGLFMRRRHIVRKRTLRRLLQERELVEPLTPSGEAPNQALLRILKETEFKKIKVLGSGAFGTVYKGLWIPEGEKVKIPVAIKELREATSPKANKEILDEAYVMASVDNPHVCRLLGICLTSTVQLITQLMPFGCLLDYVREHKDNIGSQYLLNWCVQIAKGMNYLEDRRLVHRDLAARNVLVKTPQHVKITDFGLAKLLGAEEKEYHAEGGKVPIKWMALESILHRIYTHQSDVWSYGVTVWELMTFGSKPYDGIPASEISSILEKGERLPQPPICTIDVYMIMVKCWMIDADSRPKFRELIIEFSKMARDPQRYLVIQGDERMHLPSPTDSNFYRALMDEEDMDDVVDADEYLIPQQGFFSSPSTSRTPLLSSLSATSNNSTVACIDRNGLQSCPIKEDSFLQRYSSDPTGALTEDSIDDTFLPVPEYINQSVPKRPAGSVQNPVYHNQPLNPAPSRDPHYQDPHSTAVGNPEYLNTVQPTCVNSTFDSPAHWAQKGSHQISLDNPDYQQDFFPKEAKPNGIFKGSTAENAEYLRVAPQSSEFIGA
MEASUREMENT_DESCRIPTION: Inhibition of recombinant human wild type GST-tagged EGFR cytoplasmic domain (668 to 1210 residues) expressed in baculovirus using tyr4 peptide as substrate after 1 hr by FRET-based Z'-Lyte assay
pIC50: −log10 of the molar value.
The label depends only on pIC50: T if it is at least 7, F if it is smaller.

Q: Please tell me: is the compound CCC(=O)N1CC[C@@H](N2C(=O)N(c3ccccc3Cl)Cc3cnc(Nc4ccc(N5CCN(C)CC5)c(C)c4)nc32)C1 at or over 7 in terms of pIC50?
Ans: T

Q: Please tell me: is the compound CCC(=O)N1CC[C@H](N2C(=O)N(c3cc(OC)ccc3F)Cc3cnc(Nc4ccc(N5CCC6(CCN(C)C6)C5)c(C)c4)nc32)C1 (some centres undefined) at or over 7 in terms of pIC50?
Ans: F

Q: Please tell me: is the compound CCC(=O)N1CC[C@H](N2C(=O)N(c3ccccc3Cl)Cc3cnc(Nc4ccc(N5CCN(C)CC5)c(C)c4)nc32)C1 at or over 7 in terms of pIC50?
Ans: T

Q: Please tell me: is the compound CCCC(=O)N1CC[C@H](N2C(=O)N(c3ccccc3Cl)Cc3cnc(Nc4ccc(N5CCN(C)CC5)c(C)c4)nc32)C1 at or over 7 in terms of pIC50?
Ans: T

Q: Please tell me: is the compound CCC(=O)N1CC[C@H](N2C(=O)N(c3cc(OC)ccc3F)Cc3cnc(Nc4ccc(N5CCN(C)CC5)cc4)nc32)C1 at or over 7 in terms of pIC50?
Ans: F

Q: Please tell me: is the compound Cc1cc(Nc2ncc3c(n2)N([C@H]2CCN(C(=O)CO)C2)C(=O)N(c2ccccc2Cl)C3)ccc1N1CCN(C)CC1 at or over 7 in terms of pIC50?
Ans: T

Q: Please tell me: is the compound CCC(=O)N1CC[C@H](N2C(=O)N(c3cc(OC)ccc3F)Cc3cnc(Nc4ccc(N5CCN(C)CC5)c(F)c4)nc32)C1 at or over 7 in terms of pIC50?
Ans: F

Q: Please tell me: is the compound CCC(=O)N1CC[C@H](N2C(=O)N(c3ccc(Cl)cc3)Cc3cnc(Nc4ccc(N5CCN(C)CC5)c(C)c4)nc32)C1 at or over 7 in terms of pIC50?
Ans: F

Q: Please tell me: is the compound CCC(=O)N1CC[C@H](N2C(=O)N(c3cc(OC)ccc3Cl)Cc3cnc(Nc4ccc(N5CCN(C6COC6)CC5)c(C)c4)nc32)C1 at or over 7 in terms of pIC50?
Ans: F

Q: Please tell me: is the compound Cc1cc(Nc2ncc3c(n2)N([C@H]2CCN(C(=O)C4CCCC4)C2)C(=O)N(c2ccccc2Cl)C3)ccc1N1CCN(C)CC1 at or over 7 in terms of pIC50?
Ans: T

Q: Please tell me: is the compound Cc1cc(Nc2ncc3c(n2)N([C@H]2CCN(C(=O)C4CCCCC4)C2)C(=O)N(c2ccccc2Cl)C3)ccc1N1CCN(C)CC1 at or over 7 in terms of pIC50?
Ans: T

Q: Please tell me: is the compound CCC(=O)N1CC[C@H](N2C(=O)N(c3cccc(C)c3)Cc3cnc(Nc4ccc(N5CCN(C)CC5)c(C)c4)nc32)C1 at or over 7 in terms of pIC50?
Ans: F

Q: Please tell me: is the compound CCC(=O)N1CC[C@H](N2C(=O)N(c3cc(OC)ccc3F)Cc3cnc(Nc4ccc(N5CCN(C)CC5)c(CC)c4)nc32)C1 at or over 7 in terms of pIC50?
Ans: F

Q: Please tell me: is the compound CCC(=O)N1CC[C@H](N2C(=O)N(c3cc(OC)ccc3F)Cc3cnc(Nc4ccc(N5CCN(C)CC5)c(C(F)(F)F)c4)nc32)C1 at or over 7 in terms of pIC50?
Ans: F

Q: Please tell me: is the compound CCC(=O)N1CC[C@H](N2C(=O)N(c3ccccc3OC)Cc3cnc(Nc4ccc(N5CCN(C)CC5)c(C)c4)nc32)C1 at or over 7 in terms of pIC50?
Ans: T

Q: Please tell me: is the compound CC(=O)N1CC[C@H](N2C(=O)N(c3ccccc3Cl)Cc3cnc(Nc4ccc(N5CCN(C)CC5)c(C)c4)nc32)C1 at or over 7 in terms of pIC50?
Ans: T

Q: Please tell me: is the compound CCC(=O)N1CC[C@H](N2C(=O)N(c3ccccc3C)Cc3cnc(Nc4ccc(N5CCN(C)CC5)c(C)c4)nc32)C1 at or over 7 in terms of pIC50?
Ans: T

Q: Please tell me: is the compound CCC(=O)N1CC[C@H](N2C(=O)N(c3cc(OC)ccc3F)Cc3cnc(Nc4ccc(N5CC6(CCN(C)CC6)C5)c(C)c4)nc32)C1 at or over 7 in terms of pIC50?
Ans: F

Q: Please tell me: is the compound CCC(=O)N1CC[C@H](N2C(=O)N(c3cc(OC)ccc3F)Cc3cnc(Nc4ccc(N(C)CCN(C)C)c(C)c4)nc32)C1 at or over 7 in terms of pIC50?
Ans: F

Q: Please tell me: is the compound CCC(=O)N1CC[C@H](N2C(=O)N(c3cc(OC)ccc3F)Cc3cnc(Nc4ccc(N5CCN(C)CC5)c(C(C)C)c4)nc32)C1 at or over 7 in terms of pIC50?
Ans: F

Q: Please tell me: is the compound CCC(=O)N1CC[C@H](N2C(=O)N(c3ccccc3F)Cc3cnc(Nc4ccc(N5CCN(C)CC5)c(C)c4)nc32)C1 at or over 7 in terms of pIC50?
Ans: T

Q: Please tell me: is the compound CCC(=O)N1CC[C@H](N2C(=O)N(c3ccc(C)cc3)Cc3cnc(Nc4ccc(N5CCN(C)CC5)c(C)c4)nc32)C1 at or over 7 in terms of pIC50?
Ans: F

Q: Please tell me: is the compound Cc1cc(Nc2ncc3c(n2)N([C@H]2CCN(C(=O)CN(C)C)C2)C(=O)N(c2ccccc2Cl)C3)ccc1N1CCN(C)CC1 at or over 7 in terms of pIC50?
Ans: T

Q: Please tell me: is the compound CCC(=O)N1CC[C@H](N2C(=O)N(c3cccc(F)c3)Cc3cnc(Nc4ccc(N5CCN(C)CC5)c(C)c4)nc32)C1 at or over 7 in terms of pIC50?
Ans: T

Q: Please tell me: is the compound CCC(=O)N1CC[C@H](N2C(=O)N(c3cc(OC)ccc3F)Cc3cnc(Nc4ccc(N5CCN(C)CC5)c(C)c4)nc32)C1 at or over 7 in terms of pIC50?
Ans: F

Q: Please tell me: is the compound CCC(=O)N1CC[C@H](N2C(=O)N(c3cc(OC)ccc3F)Cc3cnc(Nc4ccc(N5C[C@H]6CN(C)C[C@H]6C5)c(C)c4)nc32)C1 at or over 7 in terms of pIC50?
Ans: F

Q: Please tell me: is the compound C=CC(=O)N1CC[C@H](N2C(=O)N(c3ccccc3Cl)Cc3cnc(Nc4ccc(N5CCN(C)CC5)c(C)c4)nc32)C1 at or over 7 in terms of pIC50?
Ans: T
